Data credit: patent EP2423217A1

Test: physchem
Conditions: aqueous buffer
Where no end group is shown, it is not given here.
outcome_measure: solubility

[[record]]
monomer_sequence = "MKVTSEEKEQLSTAIDRMNEGLDAFIQLYNES [MB peptide]"
value_observed = "≥ 2200 µM"

